Entries and their mean fluorescence intensity values follow.
# subjectOfTest: T1, Claudin18.2 on cells (human, UniProt P56856-2 1-261)
# T1 construct: whole, on cells; the cell line of each result is named under assay or readout
# assayDetails: flow cytometry on 293T-Claudin18.2 cells, antibody at 0.375 µg/mL
Answer as a number with no unit attached.

• CLDQ1-CA841-IgG1 (antibody, V domains shown, Complete IgG1 made in HEK293 cells) VH: QVQLVQSGAEVKKPGSSVKVSCKASGGTFSSYAISWVRQAPGQGLEWMGRIIPILGIANYAQKFQGRVTVTADKSTSTAYMELSSLRSEDTAVYYCARERDNWDPYYYYYGMDVWGQGTTVTVSS VL: DIQMTQSPSTLSASVGDRVTITCRASQSINSWLAWYQQKPGKAPKLLIYKASSLESGVPSRFSGSGSGTEFTLTISSLQPDDFATYYCQQYNSFPLTFGGGTKVEIKR = 308000
• CLD389-CA852-IgG1 (antibody, V domains shown, Complete IgG1 made in HEK293 cells) VH: QVQLVESGGGVVQPGRSLRLSCAASGFTFSSYAMHWVRQAPGKGLEWVAVISYDGSKKYYADSVKGRFTISRDNSKNTLYLQMNSLRAEDTAVYYCARDPTMVRGVRGMDVWGQGTTVTVSS VL: EIVMTQSPSTLSASIGDRVTITCRASQGIRNDLGWYQQKPGKAPKLLIYAASSLQSGVPSRFSGSGSGTDFTLTISSLQPEDFATYYCLQDYNYPLTFGGGTKVEIKR = 196000
• CLD389-279-IgG1 (antibody, V domains shown, Complete IgG1 made in HEK293 cells; also called C279; CLD389-C279) VH: EVQLVQSGGGVVQPGRSLRLSCAASGFTFSNYAMHWVRQAPGKGLEWVAVISYDGSNKYYADSVKGRFTISRDNSKNTLYLQMNSLRAEDTAVYYCARELRFFDWLLGRAFDIWGQGTMVTVSS VL: EIVMTQSPPSLSASVGDRVTITCRASQGIRNDLGWYQQKPGKAPKLLIYAASSLQSGVPSRFSGSGSGTDFTLTISSLQPEDFATYYCLQDYNYPWTFGQGTKLEIKR = 488000

Please turn your attention to the following entry.
[in] For the binder IMAB362 (antibody, human IgG1, kappa, V domains shown) VH: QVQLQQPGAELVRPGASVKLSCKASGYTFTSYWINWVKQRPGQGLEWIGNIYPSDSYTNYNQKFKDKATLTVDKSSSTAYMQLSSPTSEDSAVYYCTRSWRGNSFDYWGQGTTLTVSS VL: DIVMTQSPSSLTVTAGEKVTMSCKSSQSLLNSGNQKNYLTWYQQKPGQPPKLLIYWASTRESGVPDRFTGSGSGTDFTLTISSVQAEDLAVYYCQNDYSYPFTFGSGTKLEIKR , what mean fluorescence intensity is on record?
[out] 498000
